test: Serum concentration and pharmacokinetics of SCI after oral gavage in Wistar rats; format: in vivo, Wistar rat; conditions: male, Wistar, rat, serum, po, 10 mg/kg, Concentration of SCI in serum, Rat No. 4; time 4 h; oral 10 mg/kg

>  <smiles.notation>
O[C@H]1[C@H](O)[C@@H](O)[C@H](O)[C@@H](O)[C@@H]1O

>  <unit.label>
ng/mL

>  <concentration at 4 h>
600

$$$$

----------
assay: Serum concentration and pharmacokinetics of SCI after oral gavage in Wistar rats; type: in vivo, Wistar rat; conditions: male, Wistar, rat, serum, po, 10 mg/kg, Rat No 4; oral 10 mg/kg
measurement.label: Cmax (ng/mL)

>  <smiles.notation>
O[C@H]1[C@H](O)[C@@H](O)[C@H](O)[C@@H](O)[C@@H]1O

>  <measurement.label>
Cmax

>  <unit.label>
ng/mL

>  <measured>
3200

$$$$
